test system: HL-60; experiment: Growth inhibition of human HL60 cells incubated for 72 hrs by MTT assay; type: functional; settings: HL-60, 72 h
GI50 for assorted compounds
value-type: GI50 (nM)

- CCn1ccc2c3c(=O)cc(-c4ccccc4F)[nH]c3ccc21: 0.17
- CCn1ccc2c3c(=O)cc(-c4ccc(F)cc4)[nH]c3ccc21: 1440
- CCn1ccc2c3c(=O)cc(-c4ccccc4)[nH]c3ccc21: 0.5
- CCn1ccc2c3c(=O)cc(-c4cccc(F)c4)[nH]c3ccc21: 0.08
- O=C(c1ccccc1F)n1ccc2c3c(=O)cc(-c4ccccc4)[nH]c3ccc21: 276
- O=C(c1ccccc1)n1ccc2c3c(=O)cc(-c4ccccc4)[nH]c3ccc21: 2
- O=C(c1ccccc1)n1ccc2c3c(=O)cc(-c4cccc(F)c4)[nH]c3ccc21: 15.1
- O=C(Oc1cc(-c2ccccc2)nc2ccc3[nH]ccc3c12)c1ccccc1F: 2310

Sourced from ChEMBL document CHEMBL4334446
